B1: Chromodomain-helicase-DNA-binding protein 7, residues 2564 to 2605; numbered along this chain, Q9P2D1 (parent)
chain: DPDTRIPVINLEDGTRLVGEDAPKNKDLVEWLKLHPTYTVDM

Variants of: B1
Assay protocol: abundance fitness (aPCA) (normalised: wild type 0, dead -1); higher = more abundant; growth selection in yeast, the domain comes from the species named
Applied conditions: Homo sapiens
Would you mind labelling by abundance fitness? At or over -0.2 is Satisfied, under is Not satisfied.

Mutant designation	Label value
P7Q	Not satisfied
E30I	Not satisfied
D13A	Satisfied
W31G	Satisfied
H35W	Not satisfied
N10L	Not satisfied
N10M	Not satisfied
L34D	Satisfied
L34T	Satisfied
D21R	Not satisfied
I9S	Satisfied
V40E	Not satisfied
K24T	Satisfied
K24R	Satisfied
P36K	Not satisfied
T39A	Not satisfied
V29F	Satisfied
T15H	Satisfied
V8P	Not satisfied
R16W	Satisfied
D21F	Satisfied
D1S	Not satisfied
K24V	Not satisfied
D27S	Not satisfied
V18W	Satisfied
N10Q	Not satisfied
A22C	Satisfied
K33S	Satisfied
N10G	Not satisfied
I9L	Satisfied
D21M	Satisfied
V8E	Not satisfied
T37N	Satisfied
K24L	Satisfied
T37L	Satisfied
T39M	Not satisfied
V18F	Satisfied
P2G	Satisfied
D41S	Not satisfied
D41T	Not satisfied
K26A	Satisfied
I6S	Satisfied
R16N	Satisfied
N10E	Not satisfied
K33G	Not satisfied
K26E	Satisfied

Data credit: the Human Domainome abundance scans (Beltran et al. 2025)
